Target: Macrophage migration inhibitory factor (Homo sapiens, UniProt P14174)
Sequence (P14174 whole entry): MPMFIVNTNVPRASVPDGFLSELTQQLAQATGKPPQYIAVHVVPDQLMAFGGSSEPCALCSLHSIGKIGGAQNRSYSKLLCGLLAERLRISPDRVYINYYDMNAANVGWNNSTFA
Experiment: Inhibition of human MIF tautomerase activity in presence of Triton X-100 as detergent
pIC50: −log10 of the molar value.
Label class 1 when pIC50 is at or above 6; anything below gets class 0.

Consider the following illustrative entries.
> print(dat)
                smiles.representation  answer.label
1           CC(=O)c1cc2ccc(O)cc2oc1=O       class 0
2  O=C(NOC(=O)c1ccccc1Br)c1ccc(Cl)cc1       class 0

Ask | Does the compound `CCOC(=O)/C(C#N)=C/c1ccc(O)cc1O` have recorded pIC50 that is 6 or more?
Reply | class 0

Ask | // inclusive: pIC50 at least 6? input: `COc1ccccc1C(=O)n1nnc2ccccc21`
Reply | class 0

Ask | Determine whether measured pIC50 meets or exceeds 6 for `O=C(Oc1ccc(-c2ccccc2)nn1)c1cccs1`
Reply | class 1

Ask | State whether the measured pIC50 reaches 6, counting equality as reaching it, for `S=C(Nc1ccccc1)Nc1nncs1`
Reply | class 1

Ask | Is it the case that `CCCCOC(=O)Sc1nc2ccccc2o1` has pIC50 reaching or exceeding 6?
Reply | class 1

Ask | Reported pIC50 reaches at least 6 for `COC(=O)CSc1nnc(-c2cccs2)n1C` ?
Reply | class 0
